In this section, each of the compounds is paired with its reported pKd.
Biological target: HDM2_25–117 (Homo sapiens, UniProt Q00987)
Construct: unnamed fusion partner ('fusion protein'); made in house; host or cells: E. coli BL21
Test: direct binding fluorescence polarization assay
Settings: fluorescein labeled ligand at 10 nM, varying HDM2; read-out: Kd (HDM2/MDM2)
Bear in mind: pKd is minus log10 of a mol/L concentration; give just that figure.

structure.smiles	target.desc	experimental.result
CC(C)CN1C(=O)[C@@H]2C[C@@]3(CN2C(=O)[C@@]12C[C@H]1C(=O)N(Cc4ccc(Cl)c(Cl)c4)[C@]4(C[C@H]5C(=O)N[C@@H](CCc6ccccc6)C(=O)N5C4)C(=O)N1C2)NC(=O)[C@@H](CCCCNC(=S)Nc1ccc2c(c1)C(=O)OC21c2ccc(O)cc2Oc2cc(O)ccc21)NC3=O	HDM2_25–117 (Homo sapiens, UniProt Q00987)	5.80
CC(C)CN1C(=O)[C@@H]2C[C@@]3(CN2C(=O)[C@@]12C[C@H]1C(=O)N(Cc4ccc(Cl)c(Cl)c4)[C@@]4(C[C@@H]5C(=O)N[C@H](CCc6ccccc6)C(=O)N5C4)C(=O)N1C2)NC(=O)[C@@H](CCCCNC(=S)Nc1ccc2c(c1)C(=O)OC21c2ccc(O)cc2Oc2cc(O)ccc21)NC3=O	HDM2_25–117 (Homo sapiens, UniProt Q00987)	5.32
CC(C)CN1C(=O)[C@@H]2C[C@@]3(CN2C(=O)[C@@]12C[C@H]1C(=O)N(Cc4ccc(Cl)c(Cl)c4)[C@@]4(C[C@H]5C(=O)N[C@H](CCc6ccccc6)C(=O)N5C4)C(=O)N1C2)NC(=O)[C@@H](CCCCNC(=S)Nc1ccc2c(c1)C(=O)OC21c2ccc(O)cc2Oc2cc(O)ccc21)NC3=O	HDM2_25–117 (Homo sapiens, UniProt Q00987)	5.34

What pKd appears in the records for this compound with HDM2_25–117 (Homo sapiens, UniProt Q00987)? "CC(C)CN1C(=O)[C@@H]2C[C@@]3(CN2C(=O)[C@@]12C[C@H]1C(=O)N(Cc4cccc5ccccc45)[C@]4(C[C@H]5C(=O)N[C@@H](Cc6ccccc6)C(=O)N5C4)C(=O)N1C2)NC(=O)[C@H](CCCCNC(=S)Nc1ccc2c(c1)C(=O)OC21c2ccc(O)cc2Oc2cc(O)ccc21)NC3=O"
4.80

* * *

Molecular target: HDM2 (Homo sapiens)
Construct: A fusion protein consisting of residues 1-140; unnamed fusion partner ('fusion protein'); made in house; host or cells: E. coli BL21
Sequence (Q00987 1-140): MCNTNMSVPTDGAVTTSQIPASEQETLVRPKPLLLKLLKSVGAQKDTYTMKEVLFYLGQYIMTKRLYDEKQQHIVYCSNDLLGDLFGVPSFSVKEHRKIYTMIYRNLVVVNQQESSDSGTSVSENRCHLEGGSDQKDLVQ
Assay: competition fluorescence polarization experiment (displacement of Flp4 peptide)
Format: binding
Settings: Flp4 at 10 nM with 2 µM HDM2, series of concentrations of spiroligomer; read-out: Ki against Flp4 peptide
property.measured: Ki
State the result as a value with its unit after it.

What Ki appears in the records for this compound with HDM2 (Homo sapiens)? CC(C)CN1C(=O)C2CC3(CN2C(=O)C12CC1C(=O)N(Cc4ccc(Cl)c(Cl)c4)C4(CC5C(=O)NC(CCc6ccccc6)C(=O)N5C4)C(=O)N1C2)NC(=O)C(CCC(=O)O)NC3=O (stereo not shown)
5 µM
